Origin of measurements: ChEMBL document CHEMBL1137367

tested on: DU-145; assay: Growth inhibition of DU145 cells by crystal violet assay after 24 hrs; type: functional, cell-based; conditions: Homo sapiens, DU-145, 24 h
For each entry below, report its pIC50 value.
One number for each entry, as −log10 of the molar value.

// each compound listed below needs its pIC50
1. CCCCCOC(=O)N1CO[C@@H]2[C@H](C)O[C@@H](O[C@H]3C[C@](O)(C(=O)CO)Cc4c(O)c5c(c(O)c43)C(=O)c3c(OC)cccc3C5=O)C[C@@H]21
2. CCCCOC(=O)N1CO[C@@H]2[C@H](C)O[C@@H](O[C@H]3C[C@](O)(C(=O)CO)Cc4c(O)c5c(c(O)c43)C(=O)c3c(OC)cccc3C5=O)C[C@@H]21
3. CCCCCOC(=O)Nc1ccc(COC(=O)N2CO[C@@H]3[C@H](C)O[C@@H](O[C@H]4C[C@](O)(C(=O)CO)Cc5c(O)c6c(c(O)c54)C(=O)c4c(OC)cccc4C6=O)C[C@@H]32)cc1
4. COc1cccc2c1C(=O)c1c(O)c3c(c(O)c1C2=O)C[C@@](O)(C(=O)CO)C[C@@H]3O[C@H]1C[C@H](N)[C@H](O)[C@H](C)O1
5. CCCCOC(=O)Nc1ccc(COC(=O)N2CO[C@@H]3[C@H](C)O[C@@H](O[C@H]4C[C@](O)(C(=O)CO)Cc5c(O)c6c(c(O)c54)C(=O)c4c(OC)cccc4C6=O)C[C@@H]32)cc1

Result:
[6.00, 6.40, 6.70, 7.50, 6.30]

###

system: Vero; assay: Cytotoxicity against Vero cells by MTT assay after 24 hrs; format: functional, cell-based; settings: Chlorocebus sabaeus
endpoint: IC50 (nM)
One number for each entry, in nM.

Record IC50 per entry; entries follow.
1. CCCCCOC(=O)Nc1ccc(COC(=O)N2CO[C@@H]3[C@H](C)O[C@@H](O[C@H]4C[C@](O)(C(=O)CO)Cc5c(O)c6c(c(O)c54)C(=O)c4c(OC)cccc4C6=O)C[C@@H]32)cc1
2. COc1cccc2c1C(=O)c1c(O)c3c(c(O)c1C2=O)C[C@@](O)(C(=O)CO)C[C@@H]3O[C@H]1C[C@H](N)[C@H](O)[C@H](C)O1
3. CCCCOC(=O)Nc1ccc(COC(=O)N2CO[C@@H]3[C@H](C)O[C@@H](O[C@H]4C[C@](O)(C(=O)CO)Cc5c(O)c6c(c(O)c54)C(=O)c4c(OC)cccc4C6=O)C[C@@H]32)cc1

Result:
1000
501
794

Could I get IC50 for every one of these entries?
1. CCCCOC(=O)N1CO[C@@H]2[C@H](C)O[C@@H](O[C@H]3C[C@](O)(C(=O)CO)Cc4c(O)c5c(c(O)c43)C(=O)c3c(OC)cccc3C5=O)C[C@@H]21
2. CCCCCOC(=O)N1CO[C@@H]2[C@H](C)O[C@@H](O[C@H]3C[C@](O)(C(=O)CO)Cc4c(O)c5c(c(O)c43)C(=O)c3c(OC)cccc3C5=O)C[C@@H]21
3. COc1cccc2c1C(=O)c1c(O)c3c(c(O)c1C2=O)C[C@@](O)(C(=O)CO)C[C@@H]3O[C@H]1C[C@@H]2NCO[C@@H]2[C@H](C)O1

Result:
1: 501; 2: 5010; 3: 7.94

###

system: MCF7; assay: Growth inhibition of MCF7 cells by crystal violet assay after 3 hrs; type: functional, cell-based; details: Homo sapiens, MCF7, 3 h
Consider the following compounds; for each one, report its pIC50.
One number for each entry, as −log10 of the molar value.

COc1cccc2c1C(=O)c1c(O)c3c(c(O)c1C2=O)C[C@@](O)(C(=O)CO)C[C@@H]3O[C@H]1C[C@@H]2NCO[C@@H]2[C@H](C)O1 [DOXAZOLIDINE]    8.50

Now for a further compound.
Task: Read the entry COc1cccc2c1C(=O)c1c(O)c3c(c(O)c1C2=O)C[C@@](O)(C(=O)CO)C[C@@H]3O[C@H]1C[C@H](N)[C@H](O)[C@H](C)O1 [DOXORUBICIN] and write its reported pIC50.
Result: 6.50
